For each entry below, report its IC50 value.
# target or system: MAO-B (Homo sapiens)
# Construct: purchased Sigma-Aldrich (St. Louis, MO, USA)
# Sequence (P27338 1-520): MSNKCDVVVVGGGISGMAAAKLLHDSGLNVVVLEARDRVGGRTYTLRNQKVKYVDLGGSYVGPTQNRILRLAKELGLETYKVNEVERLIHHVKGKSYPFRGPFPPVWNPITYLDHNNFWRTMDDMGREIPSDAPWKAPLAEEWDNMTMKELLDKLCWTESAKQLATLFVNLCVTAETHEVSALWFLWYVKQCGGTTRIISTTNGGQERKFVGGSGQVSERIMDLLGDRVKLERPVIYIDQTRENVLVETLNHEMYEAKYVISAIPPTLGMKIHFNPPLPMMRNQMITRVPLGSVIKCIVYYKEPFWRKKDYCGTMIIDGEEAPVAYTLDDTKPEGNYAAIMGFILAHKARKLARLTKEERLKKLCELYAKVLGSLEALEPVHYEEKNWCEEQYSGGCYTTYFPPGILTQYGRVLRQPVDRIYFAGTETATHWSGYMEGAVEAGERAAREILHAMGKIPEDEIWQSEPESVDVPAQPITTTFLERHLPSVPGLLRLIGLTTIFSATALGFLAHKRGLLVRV
# method: biochemical
# Format: biochemical
# test parameters: benzylamine 0.3 mM; highest concentration 40 µM; read-out: IC50 (µM) MAO-B

Look at this molecule and give its reported IC50. "O=C(Cn1nc(N2CCN(c3cccc(C(F)(F)F)c3)CC2)ccc1=O)NN=Cc1ccc(Cl)cc1" 20 µM

Try "COc1ccc(C=NNC(=O)Cn2nc(N3CCN(c4cccc(OC)c4)CC3)ccc2=O)cc1" next. > 40 µM

Try "O=C(Cn1nc(N2CCN(c3cccc(C(F)(F)F)c3)CC2)ccc1=O)NN=Cc1ccc(Br)cc1" next. > 40 µM

Try "COc1ccc(C=NNC(=O)Cn2nc(N3CCN(c4cccc(C(F)(F)F)c4)CC3)ccc2=O)cc1" next. > 40 µM

Try "Cc1ccc(C=NNC(=O)Cn2nc(N3CCN(c4cccc(C(F)(F)F)c4)CC3)ccc2=O)cc1" next. 32 µM

Try "O=C(Cn1nc(N2CCOCC2)ccc1=O)NN=Cc1ccccc1" next. > 40 µM

Try "COc1cccc(N2CCN(c3ccc(=O)n(CC(=O)NN=Cc4ccccc4)n3)CC2)c1" next. > 40 µM

Try "CN(C)c1ccc(C=NNC(=O)Cn2nc(N3CCN(c4cccc(C(F)(F)F)c4)CC3)ccc2=O)cc1" next. > 40 µM

* * *

# target or system: Recombinant human MAO-A (Homo sapiens)
# Construct: purchased Sigma-Aldrich (St. Louis, MO, USA)
# Sequence (P21397 whole entry): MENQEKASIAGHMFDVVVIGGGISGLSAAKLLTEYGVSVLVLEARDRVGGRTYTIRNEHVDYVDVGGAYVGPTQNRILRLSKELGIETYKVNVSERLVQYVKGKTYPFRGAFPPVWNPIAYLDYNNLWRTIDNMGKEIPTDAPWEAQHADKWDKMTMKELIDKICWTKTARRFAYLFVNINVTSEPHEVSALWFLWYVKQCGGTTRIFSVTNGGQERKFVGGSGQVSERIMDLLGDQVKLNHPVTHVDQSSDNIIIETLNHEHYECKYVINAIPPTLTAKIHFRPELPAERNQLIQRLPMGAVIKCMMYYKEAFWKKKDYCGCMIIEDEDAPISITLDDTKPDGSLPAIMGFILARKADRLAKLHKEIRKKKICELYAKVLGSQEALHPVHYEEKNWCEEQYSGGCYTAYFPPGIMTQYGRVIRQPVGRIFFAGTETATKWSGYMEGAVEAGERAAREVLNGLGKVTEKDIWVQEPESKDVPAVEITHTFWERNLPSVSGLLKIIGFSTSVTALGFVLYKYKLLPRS
# method: biochemical
# test parameters: 10 µM compound; mean ± standard error of duplicate or triple studies; read-out: Residual Activity at 10 µM (%) MAO-A
Just a reminder that ties go to Not fulfilled: only remaining activity at 10 µM strictly below 70% counts as Fulfilled.

hey, is remaining activity at 10 µM for "O=C(Cn1nc(N2CCN(c3cccc(C(F)(F)F)c3)CC2)ccc1=O)NN=Cc1ccc(Br)cc1" lower than 70% or not? Not fulfilled

Try "COc1ccc(C=NNC(=O)Cn2nc(N3CCN(c4cccc(C(F)(F)F)c4)CC3)ccc2=O)cc1" next. Fulfilled

Try "COc1cccc(N2CCN(c3ccc(=O)n(CC(=O)NN=Cc4ccccc4)n3)CC2)c1" next. Not fulfilled

Try "O=C(Cn1nc(N2CCOCC2)ccc1=O)NN=Cc1ccccc1" next. Not fulfilled

Try "O=C(Cn1nc(N2CCOCC2)ccc1=O)NN=Cc1ccc(F)cc1" next. Not fulfilled

Try "COc1cccc(N2CCN(c3ccc(=O)n(CC(=O)NN=Cc4ccc(Cl)cc4)n3)CC2)c1" next. Fulfilled

Try "COc1cccc(N2CCN(c3ccc(=O)n(CC(=O)NN=Cc4ccc(C)cc4)n3)CC2)c1" next. Not fulfilled

Try "COc1cccc(N2CCN(c3ccc(=O)n(CC(=O)NN=Cc4ccc(Br)cc4)n3)CC2)c1" next. Fulfilled
